# assay.notes: ABTS radical cation scavenging activity assay
# measurement.setup: 1 h incubation, ABTS•+ 100 μM
pIC50: −log10 of the molar value.

molecule: S=C(NCCCCCCNC(=S)Nc1c2c(nc3c1CCC3)CCCC2)Nc1c2c(nc3c1CCC3)CCCC2 [Compound 5e]
pIC50: 4.96
--
molecule: S=C(NCCCCCCCNC(=S)Nc1c2c(nc3c1CCC3)CCCC2)Nc1c2c(nc3c1CCC3)CCCC2 [Compound 5f]
pIC50: 4.91

* * *

# assay.target: β-amyloid (1–42) (Aβ42) (Homo sapiens, UniProt P05067)
# Sequence (P05067 672-713): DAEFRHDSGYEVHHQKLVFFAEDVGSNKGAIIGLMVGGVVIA
# assay.notes: Inhibition of Aβ42 self-aggregation, Thioflavin T fluorescence
# Type: biochemical
# measurement.setup: Aβ42 50 µM, compound 100 µM

compound: S=C(NCCCNC(=S)Nc1c2c(nc3c1CCC3)CCCC2)Nc1c2c(nc3c1CCC3)CCCC2 [Compound 5b]
inhibition at 100 µM / %: 1.6

compound: S=C(NCCCCNC(=S)Nc1c2c(nc3c1CCC3)CCCC2)Nc1c2c(nc3c1CCC3)CCCC2 [Compound 5c]
inhibition at 100 µM / %: 17.2

compound: S=C(NCCCCCNC(=S)Nc1c2c(nc3c1CCC3)CCCC2)Nc1c2c(nc3c1CCC3)CCCC2 [Compound 5d]
inhibition at 100 µM / %: 12.8

compound: S=C(NCCCCCCCCNC(=S)Nc1c2c(nc3c1CCC3)CCCC2)Nc1c2c(nc3c1CCC3)CCCC2 [Compound 5g]
inhibition at 100 µM / %: 5.2

compound: S=C(NCCNC(=S)Nc1c2c(nc3c1CCC3)CCCC2)Nc1c2c(nc3c1CCC3)CCCC2 [Compound 5a]
inhibition at 100 µM / %: 2.9

compound: S=C(NCCCCCCCNC(=S)Nc1c2c(nc3c1CCC3)CCCC2)Nc1c2c(nc3c1CCC3)CCCC2 [Compound 5f]
inhibition at 100 µM / %: 3.7

compound: S=C(NCCCCCCNC(=S)Nc1c2c(nc3c1CCC3)CCCC2)Nc1c2c(nc3c1CCC3)CCCC2 [Compound 5e]
inhibition at 100 µM / %: 14.3
